Assay: Rat ocular pharmacokinetics study, Cohort 1: geranylgeranyl acetone concentration in eyes after topical eye drops
Format: in vivo
Conditions: Sprague-Dawley, contralateral eye, 0.25 mg/eye, contralateral eye concentration (ng/g in Table 7), 8 doses, average of 3 rats, read-out: 8 h contra AVE
MEASURED QUANTITY: concentration at 8 h (ng/g)
Field: numeric (ng/g). Do not append units.

Ask: Need concentration at 8 h of CC(=O)CC/C=C(\C)CC/C=C(\C)CC/C=C(\C)CCC=C(C)C [CNS-102, all-trans geranylgeranyl acetone] , thanks.
Result: 2100

----------
Assay: Rat ocular pharmacokinetics study, Cohort 1: geranylgeranyl acetone concentration in eyes after topical eye drops
Assay type: in vivo
Conditions: Sprague-Dawley, treated (ipsilateral) eye, 0.25 mg/eye, treated eye concentration (ng/g in Table 7), 8 doses, average of 3 rats, read-out: 8 h ispi AVE
MEASURED QUANTITY: concentration at 8 h (ng/g)
Field: numeric (ng/g). Do not append units.

Ask: Need concentration at 8 h of CC(=O)CC/C=C(\C)CC/C=C(\C)CC/C=C(\C)CCC=C(C)C [CNS-102, all-trans geranylgeranyl acetone] , thanks.
Result: 8770

Reference source: patent US20140171516A1
